Hi there, I'd appreciate the recorded bioavailability for every entry that follows.
# protocol: Oral bioavailability in C57BL/6 mouse at 50 mg/kg, po administered in 5% Tween-80
# Format: ADME, organism-based
# conditionSummary: in vivo
I'd appreciate it if you wrote the number followed by its unit.

Entry O=C(O)c1cc(-c2cscc2C(O)(C(F)(F)F)C(F)(F)F)c2ccc(-c3ccc(OC(F)(F)F)cc3)cc2c1 , bioavailability reported as 45%

Entry CS(=O)(=O)c1cscc1-c1cc(C(=O)O)cc2cc(-c3ccc(OC(F)(F)F)cc3)ccc12 , bioavailability reported as 4%

Entry O=C(O)c1cc2cc(-c3ccc(OC(F)(F)F)cc3)ccc2c(-c2ccsc2)c1F , bioavailability reported as 129%

Entry O=C(O)c1cc(-c2ccc([C@@H](O)C(F)F)cc2)c2ccc(-c3ccc(C(F)(F)F)cc3)cc2c1 , bioavailability reported as 67%

Next:
Entry Cc1cc(F)cc(C)c1COc1ccc2c(-c3ccsc3)cc(C(=O)O)cc2c1 , bioavailability reported as 12%
